Where do the numbers come from? From DBAASP.

Notes on MIC obtained with Listeria innocua.
Numbers only; they are read as µM.

compound="CSCC[C@H](N)C(=O)N[C@@H](CC(C)C)C(=O)N[C@H](C(=O)N[C@@H](C)C(=O)N[C@@H](CCC(=O)O)C(=O)N[C@@H](CCC(=O)O)C(=O)N[C@@H](CCCCN)C(=O)N[C@@H](C)C(=O)N[C@@H](C)C(=O)N[C@H](C(=O)N[C@H](C(=O)N[C@@H](C)C(=O)N[C@@H](Cc1ccccc1)C(=O)O)[C@@H](C)O)C(C)C)[C@@H](C)O [MLTAEEKAAVTAF]" unit=µM test_value=6

Alright, here's another compound for you.
**Query** Find MIC (Listeria innocua) for the entry CC[C@H](C)[C@H](NC(=O)[C@@H](NC(=O)[C@H](CO)NC(=O)[C@H](C)NC(=O)[C@@H](NC(=O)[C@H](CCCCN)NC(=O)[C@H](CCCCN)NC(=O)[C@@H](NC(=O)[C@@H](NC(=O)[C@H](CC(=O)O)NC(=O)[C@H](Cc1ccccc1)NC(=O)[C@H](CC(C)C)NC(=O)CN)C(C)C)[C@@H](C)CC)C(C)C)C(C)C)C(=O)N[C@@H](CCCCN)C(=O)N[C@@H](CCCCN)C(=O)N[C@@H](CC(C)C)C(N)=O [GLFDVIKKVASVIKKL]
**Result** 28.4

----------
MIC values recorded for Bacillus subtilis
Expressed in µM, but write only the number.

Example entries begin here.
compound="CC[C@H](C)[C@H](NC(=O)[C@H](Cc1c[nH]c2ccccc12)NC(=O)[C@H](CO)NC(=O)[C@H](CO)NC(=O)[C@H](CC(C)C)NC(=O)[C@H](C)NC(=O)[C@@H]1CCCN1C(=O)[C@H](CC(C)C)NC(=O)CN)C(=O)N[C@@H](CCCCN)C(=O)N[C@@H](CCCN=C(N)N)C(=O)N[C@@H](CCCCN)C(=O)N[C@@H](CCCN=C(N)N)C(=O)N[C@@H](CCC(N)=O)C(=O)N[C@@H](CCC(N)=O)C(N)=O [GLPALSSWIKRKRQQ]" unit=µM test_value=22.1
compound="CC[C@H](C)[C@H](N)C(=O)N[C@@H](CC(N)=O)C(=O)N[C@@H](Cc1c[nH]c2ccccc12)C(=O)N[C@@H](CCCCN)C(=O)N[C@@H](CCCCN)C(=O)N[C@H](C(=O)N[C@@H](Cc1ccccc1)C(=O)N[C@@H](CCC(=O)O)C(=O)N[C@@H](CCCCN)C(=O)N[C@H](C(=O)N[C@@H](CO)C(=O)N[C@@H](CC(N)=O)C(=O)N[C@@H](CC(C)C)C(=O)N[C@H](C(N)=O)C(C)C)C(C)C)[C@@H](C)CC [INWKKIFEKVSNLV]" unit=µM test_value=22.5

**Query** Find the recorded MIC belonging to CC[C@H](C)[C@H](NC(=O)[C@H](CC(C)C)NC(=O)[C@H](C)NC(=O)[C@@H]1CCCN1C(=O)[C@H](CC(C)C)NC(=O)CN)C(=O)N[C@@H](CO)C(=O)N[C@@H](Cc1c[nH]c2ccccc12)C(=O)N[C@H](C(=O)N[C@@H](CCCCN)C(=O)N[C@@H](CCCN=C(N)N)C(=O)N[C@@H](CCCCN)C(=O)N[C@@H](CCCN=C(N)N)C(=O)N[C@@H](CCC(N)=O)C(=O)N[C@@H](CCC(N)=O)C(N)=O)[C@@H](C)CC [GLPALISWIKRKRQQ] and report it.
**Result** 3.12

**Query** Please give the result for CC(C)C[C@H](NC(=O)[C@H](C)NC(=O)[C@H](Cc1c[nH]c2ccccc12)NC(=O)[C@H](CC(C)C)NC(=O)[C@@H](N)Cc1ccccc1)C(=O)N[C@@H](Cc1ccccc1)C(=O)N[C@@H](CCCCN)C(=O)N[C@H](C(=O)N[C@@H](C)C(=O)N[C@@H](CO)C(=O)N[C@@H](CCCCN)C(=O)O)C(C)C [FLWALFKVASK] too.
**Result** 9.54

----------
Entries with reported MIC on Escherichia coli K88
Provide the reading as a plain figure in µM.

smiles_entry=CC[C@H](C)[C@H](NC(=O)[C@H](CCCN=C(N)N)NC(=O)[C@H](C)NC(=O)[C@H](C)N)C(=O)N[C@H](C(=O)N[C@@H](CC(C)C)C(=O)N[C@@H](CCCN=C(N)N)C(=O)N[C@@H](Cc1ccc(O)cc1)C(=O)N[C@@H](CCCN=C(N)N)C(=O)N[C@@H](Cc1ccccc1)C(=O)N[C@@H](CCCN=C(N)N)C(N)=O)[C@@H](C)CC recorded_metric=MIC test_value=4

**Query** Fill in the blank: the reported MIC of CC(C)C[C@H](NC(=O)CNC(=O)[C@H](CC(C)C)NC(=O)[C@H](Cc1c[nH]c2ccccc12)NC(=O)[C@H](CC(C)C)NC(=O)CNC(=O)[C@H](CC(C)C)NC(=O)[C@H](CCCCN)NC(=O)[C@@H](N)CCCCN)C(=O)N[C@@H](CCCCN)C(=O)N[C@@H](CCCCN)C(N)=O is ____.
**Result** 8

**Query** Try this compound next: CC[C@H](C)[C@H](NC(=O)[C@H](CCCN=C(N)N)NC(=O)[C@H](C)NC(=O)[C@H](C)N)C(=O)N[C@H](C(=O)N[C@@H](CC(C)C)C(=O)N[C@@H](CCCN=C(N)N)C(=O)N1CCC[C@H]1C(=O)N[C@@H](CCCN=C(N)N)C(=O)N[C@@H](Cc1ccccc1)C(=O)N[C@@H](CCCN=C(N)N)C(N)=O)[C@@H](C)CC
**Result** 16

----------
We begin with a simple list: items and their reported MIC.
System: Salmonella enterica subsp. enterica serovar Typhimurium C77-31
experimental.protocol: ≥ marks a high value that may be exact or a test limit, other limits are often not marked, values filed in µg/mL are converted to µM

**Query** Form field: reported MIC of CC[C@H](C)[C@H](N)C(=O)N[C@@H](Cc1cnc[nH]1)C(=O)N[C@@H](Cc1cnc[nH]1)C(=O)N[C@H](C(=O)N[C@@H](Cc1cnc[nH]1)C(=O)N[C@@H](Cc1cnc[nH]1)C(=O)N[C@@H](Cc1cnc[nH]1)C(=O)N[C@H](C(=O)N[C@@H](Cc1cnc[nH]1)C(=O)N[C@@H](Cc1cnc[nH]1)C(=O)N[C@H](C(=O)N[C@@H](Cc1cnc[nH]1)C(=O)N[C@@H](Cc1cnc[nH]1)C(=O)N[C@@H](Cc1cnc[nH]1)C(N)=O)[C@@H](C)CC)[C@@H](C)CC)[C@@H](C)CC
**Result** ≥ 64 µM

**Query** Now try CC[C@H](C)[C@H](N)C(=O)N[C@@H](CCCN=C(N)N)C(=O)N1CCC[C@H]1C(=O)N[C@H](C(=O)N[C@@H](CCCN=C(N)N)C(=O)N1CCC[C@H]1C(=O)O)[C@@H](C)CC .
**Result** ≥ 128 µM

**Query** Same again, this time with CC[C@H](C)[C@H](NC(=O)[C@H](CCCN=C(N)N)NC(=O)[C@H](Cc1c[nH]c2ccccc12)NC(=O)[C@H](CCCN=C(N)N)NC(=O)[C@@H](NC(=O)[C@H](CCCCN)NC(=O)[C@H](Cc1c[nH]c2ccccc12)NC(=O)[C@H](CCCN=C(N)N)NC(=O)[C@@H](NC(=O)[C@H](CCCN=C(N)N)NC(=O)[C@@H](N)Cc1c[nH]c2ccccc12)[C@@H](C)CC)[C@@H](C)O)C(=O)N[C@@H](CCCCN)C(N)=O
**Result** 2 µM

----------
Test system: Klebsiella pneumoniae ATCC 700603
recorded.metric: MIC (µM)
State just the number; it will be interpreted in µM.

// worked examples, MIC included
compound="CC(=O)N[C@@H](Cc1ccccc1)C(=O)N[C@@H](CCCCN)C(=O)N[C@@H](CC(C)C)C(=O)N[C@@H](CCCCN)C(=O)N[C@@H](CC(C)C)C(=O)N[C@@H](CCCCN)C(=O)N[C@@H](Cc1ccccc1)C(=O)N[C@@H](CO)C(=O)N[C@@H](CC(N)=O)C(=O)N[C@@H](CCCCN)C(=O)N[C@@H](CC(C)C)C(=O)N[C@@H](CCCCN)C(=O)N[C@@H](Cc1c[nH]c2ccccc12)C(=O)N[C@@H](CCCCN)C(=O)N[C@@H](Cc1c[nH]c2ccccc12)C(N)=O [FKLKLKFSNKLKWKW]" target_desc="Klebsiella pneumoniae ATCC 700603" test_value=25
compound="CC[C@H](C)[C@H](N)C(=O)N[C@@H](CC(C)C)C(=O)N1CCC[C@H]1C(=O)N[C@@H](Cc1c[nH]c2ccccc12)C(=O)N[C@@H](CCCCN)C(=O)N[C@@H](Cc1c[nH]c2ccccc12)C(=O)N[C@@H](CCCCN)C(=O)N[C@@H](Cc1c[nH]c2ccccc12)C(=O)N[C@H](C(=O)N1CCC[C@H]1C(=O)N[C@@H](Cc1c[nH]c2ccccc12)C(=O)N[C@@H](CCCN=C(N)N)C(=O)N[C@@H](CCCN=C(N)N)C(N)=O)[C@@H](C)O [ILPWKWKWTPWRR]" target_desc="Klebsiella pneumoniae ATCC 700603" test_value=5

Okay, next one:
**Query** Notebook entry, Klebsiella pneumoniae ATCC 700603 assay: MIC of CC[C@H](C)[C@H](NC(=O)[C@H](CCCCN)NC(=O)[C@H](CCCCN)NC(=O)[C@H](C)NC(=O)[C@@H](NC(=O)[C@H](C)NC(=O)[C@H](CC(C)C)NC(=O)[C@H](CC(C)C)NC(=O)[C@H](CCCCN)NC(=O)[C@H](CCCCN)NC(=O)[C@H](CC(C)C)NC(=O)[C@H](CC(N)=O)NC(=O)CN)C(C)C)C(=O)N[C@@H](CC(C)C)C(N)=O [GNLKKLLAVAKKIL] = ?
**Result** 16
